System: BEN
Experiment: relative viability (nuclei count vs DMSO), 5 days (fraction); higher = more cells survive
Settings: first compound 0.000632 µM
reported.metric: relative viability

{"compound": "CC(=O)O[C@@]12CO[C@@H]1C[C@H](O)[C@@]1(C)C(=O)[C@H](O)C3=C(C)[C@@H](OC(=O)[C@H](O)[C@@H](NC(=O)OC(C)(C)C)c4ccccc4)C[C@@](O)([C@@H](OC(=O)c4ccccc4)[C@H]21)C3(C)C [Docetaxel] + C[C@]1(O)C[C@@H](c2nc(-c3ccc4ccc(-c5ccccc5)nc4c3)c3c(N)nccn32)C1 [Linsitinib] (partner 1 µM)", "reading": 0.812}
{"compound": "CC(=O)O[C@@]12CO[C@@H]1C[C@H](O)[C@@]1(C)C(=O)[C@H](O)C3=C(C)[C@@H](OC(=O)[C@H](O)[C@@H](NC(=O)OC(C)(C)C)c4ccccc4)C[C@@](O)([C@@H](OC(=O)c4ccccc4)[C@H]21)C3(C)C [Docetaxel] + CC(=O)c1c(C)c2cnc(Nc3ccc(N4CCNCC4)cn3)nc2n(C2CCCC2)c1=O [Palbociclib] (partner 0.5 µM)", "reading": 0.478}
{"compound": "CC(=O)O[C@@]12CO[C@@H]1C[C@H](O)[C@@]1(C)C(=O)[C@H](O)C3=C(C)[C@@H](OC(=O)[C@H](O)[C@@H](NC(=O)OC(C)(C)C)c4ccccc4)C[C@@](O)([C@@H](OC(=O)c4ccccc4)[C@H]21)C3(C)C [Docetaxel] + N=C(N)NC(=N)NCCc1ccccc1 [Phenformin] (partner 250 µM)", "reading": 0.253}
{"compound": "CC(=O)O[C@@]12CO[C@@H]1C[C@H](O)[C@@]1(C)C(=O)[C@H](O)C3=C(C)[C@@H](OC(=O)[C@H](O)[C@@H](NC(=O)OC(C)(C)C)c4ccccc4)C[C@@](O)([C@@H](OC(=O)c4ccccc4)[C@H]21)C3(C)C [Docetaxel] + COc1cccc2cc(-c3nc([C@H]4CC[C@H](C(=O)O)CC4)n4ncnc(N)c34)[nH]c12 [OSI-027] (partner 0.5 µM)", "reading": 0.285}

---

relative viability: recorded values
System: ABC-1
Test: relative viability (nuclei count vs DMSO), 5 days (fraction); higher = more cells survive
Settings: first compound 2.53 µM
reported.metric: relative viability

{"molecule": "O=c1[nH]c2ccccc2n1C1CCN(CCCC(c2ccc(F)cc2)c2ccc(F)cc2)CC1 [Pimozide] + C[C@]1(O)C[C@@H](c2nc(-c3ccc4ccc(-c5ccccc5)nc4c3)c3c(N)nccn32)C1 [Linsitinib] (partner 1 µM)", "reported.metric": "relative viability", "reading": 0.629}
{"molecule": "Cc1cnc(-c2cnc(NCCNc3ccc(C#N)cn3)nc2-c2ccc(Cl)cc2Cl)[nH]1 + O=C(CCCCCCC(=O)Nc1ccccc1)NO [Vorinostat] (partner 1 µM)", "reported.metric": "relative viability", "reading": 1.15}
{"molecule": "O=c1[nH]c2ccccc2n1C1CCN(CCCC(c2ccc(F)cc2)c2ccc(F)cc2)CC1 [Pimozide] + Cc1nc(Nc2ncc(C(=O)Nc3c(C)cccc3Cl)s2)cc(N2CCN(CCO)CC2)n1 [Dasatinib] (partner 0.075 µM)", "reported.metric": "relative viability", "reading": 0.388}

---

System: NCI-H23
Experiment: relative viability (nuclei count vs DMSO), 5 days (fraction); higher = more cells survive
Conditions: first compound 2.53 µM
Reported values of relative viability for individual entries

{"compound": "Cc1cnc(-c2cnc(NCCNc3ccc(C#N)cn3)nc2-c2ccc(Cl)cc2Cl)[nH]1 + C[C@@H](Oc1cc(-c2cnn(C3CCNCC3)c2)cnc1N)c1c(Cl)ccc(F)c1Cl [Crizotinib] (partner 1 µM)", "target.or.test.system": "NCI-H23", "relative viability": 0.621}
{"compound": "Cc1cnc(-c2cnc(NCCNc3ccc(C#N)cn3)nc2-c2ccc(Cl)cc2Cl)[nH]1 + CC(C)C[C@H](NC(=O)[C@H](Cc1ccccc1)NC(=O)c1cnccn1)B(O)O [Bortezomib] (partner 0.002 µM)", "target.or.test.system": "NCI-H23", "relative viability": 1.13}
{"compound": "Cc1cnc(-c2cnc(NCCNc3ccc(C#N)cn3)nc2-c2ccc(Cl)cc2Cl)[nH]1 + COc1cc2c(Oc3ccc(NC(=O)C4(C(=O)Nc5ccc(F)cc5)CC4)cc3F)ccnc2cc1OCCCN1CCOCC1 [Foretinib] (partner 0.25 µM)", "target.or.test.system": "NCI-H23", "relative viability": 1}
{"compound": "O=c1[nH]c2ccccc2n1C1CCN(CCCC(c2ccc(F)cc2)c2ccc(F)cc2)CC1 [Pimozide] + COc1cccc2cc(-c3nc([C@H]4CC[C@H](C(=O)O)CC4)n4ncnc(N)c34)[nH]c12 [OSI-027] (partner 0.5 µM)", "target.or.test.system": "NCI-H23", "relative viability": 0.443}
{"compound": "O=c1[nH]c2ccccc2n1C1CCN(CCCC(c2ccc(F)cc2)c2ccc(F)cc2)CC1 [Pimozide] + Cc1nc(Nc2ncc(C(=O)Nc3c(C)cccc3Cl)s2)cc(N2CCN(CCO)CC2)n1 [Dasatinib] (partner 0.075 µM)", "target.or.test.system": "NCI-H23", "relative viability": 0.679}
{"compound": "O=c1[nH]c2ccccc2n1C1CCN(CCCC(c2ccc(F)cc2)c2ccc(F)cc2)CC1 [Pimozide] + CC(=O)c1c(C)c2cnc(Nc3ccc(N4CCNCC4)cn3)nc2n(C2CCCC2)c1=O [Palbociclib] (partner 0.5 µM)", "target.or.test.system": "NCI-H23", "relative viability": 0.445}
